These measurements were taken from patent US4853463A.

Below is a list of entries, each paired with its recorded pIC50 value.
# experimental-system: human renin (Homo sapiens, UniProt P00797)
# Sequence (P00797 67-406): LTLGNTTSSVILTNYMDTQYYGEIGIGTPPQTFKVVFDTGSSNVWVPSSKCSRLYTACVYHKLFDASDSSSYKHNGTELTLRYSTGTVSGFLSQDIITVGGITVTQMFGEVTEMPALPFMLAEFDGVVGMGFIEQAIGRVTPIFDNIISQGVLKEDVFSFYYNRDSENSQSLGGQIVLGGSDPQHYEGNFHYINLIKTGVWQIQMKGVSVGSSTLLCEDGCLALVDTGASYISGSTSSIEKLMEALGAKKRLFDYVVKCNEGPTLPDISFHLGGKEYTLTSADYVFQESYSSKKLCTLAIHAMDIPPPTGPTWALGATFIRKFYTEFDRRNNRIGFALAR
# method-notes: Human renin-sheep renin substrate reaction system in vitro
# Type: biochemical
# recorded-conditions: purified human renin, semipurified sheep renin substrate, pH 7.4, 37° C., 15 minutes
Reminder that pIC50 is minus the log10 of a molar concentration.

Some molecules with recorded pIC50:
Q: Form field - read-out: pIC50; system: human renin (Homo sapiens, UniProt P00797); submitted item: CC(C)C[C@H](NC(=O)[C@H](C)NC(=O)C(CC(=O)N1CCOCC1)Cc1cccc2ccccc12)C(O)C(=O)OC(C)C (mixture of isomers)
A: 7.59

Q: Report pIC50 for CC(C)C[C@H](NC(=O)[C@@H](NC(=O)C(CC(=O)N1CCOCC1)Cc1cccc2ccccc12)C(C)C)C(O)C(=O)OC(C)C (stereo partly drawn) tested on human renin (Homo sapiens, UniProt P00797).
A: 8.18

Now, please, on to the next molecule.
Q: Requested read-out pIC50, target or system human renin (Homo sapiens, UniProt P00797), entry CC(C)CCNC(=O)C[C@H](O)[C@H](CC(C)C)NC(=O)[C@H](CC(C)C)NC(=O)C(CC(=O)N1CCOCC1)Cc1cccc2ccccc12 (stereo partly drawn)
A: 7.10

----------
# experimental-system: human renin (Homo sapiens)
# method-notes: Renin inhibitory effect in a human high renin plasma
# Assay type: biochemical
# Set-up: human high renin plasma; from tissue; host or cells: human high renin plasma
# recorded-conditions: phosphate buffer pH 7.0, 37° C., 60 minutes
observation-type: pIC50
pIC50 field: float, defined as -log10 of concentration (mol/L).

Use the examples below as a reference point.
Q: Lab request: please report pIC50 under test system human renin (Homo sapiens) for CC(C)C[C@H](NC(=O)[C@@H](NC(=O)C(CC(=O)N1CCOCC1)Cc1cccc2ccccc12)C(C)C)C(O)C(=O)OC(C)C (stereo partly drawn)
A: 8.48

Q: Give human renin (Homo sapiens) pIC50 for CC(C)C[C@H](NC(=O)CCNC(=O)C(CC(=O)N1CCOCC1)Cc1cccc2ccccc12)C(O)C(=O)OC(C)C (stereo partly drawn)
A: 7.34

Q: I'm curious: which pIC50 was measured for CC(C)C[C@H](NC(=O)[C@H](C)NC(=O)C(CC(=O)N1CCOCC1)Cc1cccc2ccccc12)C(O)C(=O)OC(C)C (mixture of isomers) tested on human renin (Homo sapiens)?
A: 7.70

Q: State its pIC50 on human renin (Homo sapiens): CC(C)C[C@H](NC(=O)C(CC(=O)N1CCOCC1)Cc1cccc2ccccc12)C(=O)N[C@@H](CC(C)C)C(O)C(=O)OC(C)C (stereo partly drawn)
A: 7.80

---
Q: Enter reported pIC50 observed with human renin (Homo sapiens) for CC(C)CCNC(=O)C[C@H](O)[C@H](CC(C)C)NC(=O)[C@H](CC(C)C)NC(=O)C(CC(=O)N1CCOCC1)Cc1cccc2ccccc12 (stereo partly drawn)
A: 7.21

Q: // lookup pIC50 | system=human renin (Homo sapiens) | key= CC(C)C[C@H](NC(=O)CNC(=O)C(CC(=O)N1CCOCC1)Cc1cccc2ccccc12)C(O)C(=O)OC(C)C (stereo partly drawn)
A: 6.70

Q: Find the measured pIC50: item CC(C)C[C@H](NC(=O)[C@H](CO)NC(=O)C(CC(=O)N1CCOCC1)Cc1cccc2ccccc12)C(O)C(=O)OC(C)C (stereo partly drawn) , target or system human renin (Homo sapiens).
A: 8.14

Q: # returns recorded pIC50 (system: human renin (Homo sapiens)) for CC(C)C[C@H](NC(=O)[C@H](Cc1ccccc1)NC(=O)C(CC(=O)N1CCOCC1)Cc1cccc2ccccc12)C(O)C(=O)OC(C)C (stereo partly drawn)
A: 6.85

Q: Param readout = pIC50; param system = human renin (Homo sapiens); param query = COC(=O)C(O)[C@H](CC(C)C)NC(=O)[C@H](CC(C)C)NC(=O)C(CC(=O)N1CCOCC1)Cc1cccc2ccccc12 (mixture of isomers) ; response: value
A: 7.96

Q: Notebook entry, human renin (Homo sapiens) assay: pIC50 of COC(=O)CN(C)C(=O)CC(Cc1cccc2ccccc12)C(=O)N[C@@H](C)C(=O)N[C@@H](CC(C)C)C(O)C(=O)OC(C)C (stereo partly drawn) = ?
A: 7.89

Q: Param readout = pIC50; param system = human renin (Homo sapiens); param query = COC(=O)[C@@H]1CCCN1C(=O)CC(Cc1cccc2ccccc12)C(=O)N[C@@H](C)C(=O)N[C@@H](CC(C)C)C(O)C(=O)OC(C)C (stereo partly drawn) ; response: value
A: 7.36

Q: Request body: readout pIC50, system human renin (Homo sapiens), query CC(C)C[C@H](NC(=O)[C@H](Cc1c[nH]c2ccccc12)NC(=O)C(CC(=O)N1CCOCC1)Cc1cccc2ccccc12)C(O)C(=O)OC(C)C (stereo partly drawn) . Return the value.
A: 6.29
